Exercise: state measured viability, T/C for each of the molecules provided.
- Test system: 475296-252-R-J1-PDC spheroid viability;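 also: spheroids exposed to agents for seven days before readout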
- assay.method.text: Anticancer human tumor 475296-252-R-J1-PDC patient-derived rectal carcinoma cell line growth inhibition [PI3K]
- test.settings: second compound 0.1 µM; first compound 10 µM; stronger effect = lower value; spheroids with HUVEC and MSC
Unit % implied. Number only.

Prompt: Identify measured viability, T/C associated with C=CC(=O)N1CCN(c2nc(=O)n(-c3c(C)ccnc3C(C)C)c3nc(-c4c(O)cccc4F)c(F)cc23)C(C)C1 (configuration not stated) + Cc1nc(NC(=O)N2CCCC2C(N)=O)sc1-c1ccnc(C(C)(C)C(F)(F)F)c1
Completion: 108

Prompt: Identify measured viability, T/C corresponding to Cn1nccc1Nc1nccc(-c2ccn(C(CO)c3ccc(Cl)c(F)c3)c(=O)c2)n1 (configuration not stated) + CC(Nc1ncnc2nc[nH]c12)c1cc2cccc(Cl)c2c(=O)n1-c1ccccc1
Completion: 77.4

Prompt: Report measured viability, T/C; entry is CC(Cn1ccc(-c2ccc(C#N)c(Cl)c2)n1)NC(=O)c1cc(C(C)O)[nH]n1 (configuration not stated) + Cc1nc(NC(=O)N2CCCC2C(N)=O)sc1-c1ccnc(C(C)(C)C(F)(F)F)c1
Completion: 112

Prompt: For the molecule CNC(=O)c1ccc(N2C(=S)N(c3ccc(C#N)c(C(F)(F)F)c3)C(=O)C2(C)C)cc1F + Cc1nc(NC(=O)N2CCCC2C(N)=O)sc1-c1ccnc(C(C)(C)C(F)(F)F)c1 , report viability, T/C.
Completion: 114

Prompt: Respond only with viability, T/C recorded for CC1(C)CCC(Nc2ncc(C(F)(F)F)c(-c3c[nH]c4c(P(C)(C)=O)c(C#N)ccc34)n2)CN1 (configuration not stated) + CC(Nc1ccc2c(c1)OCCn1cc(N3C(=O)OCC3C(F)F)nc1-2)C(N)=O
Completion: 72.9

Prompt: Give the reported viability, T/C for this molecule. CC(Cn1ccc(-c2ccc(C#N)c(Cl)c2)n1)NC(=O)c1cc(C(C)O)[nH]n1 (configuration not stated) + CC(Nc1ccc2c(c1)OCCn1cc(N3C(=O)OCC3C(F)F)nc1-2)C(N)=O
Completion: 98.4

Prompt: Output viability, T/C of CNC(=O)c1ccc(N2C(=S)N(c3ccc(C#N)c(C(F)(F)F)c3)C(=O)C2(C)C)cc1F + CC(Nc1ncnc2nc[nH]c12)c1cc2cccc(Cl)c2c(=O)n1-c1ccccc1
Completion: 106

Prompt: Please supply the value of reported viability, T/C for the item CC1(C)CCC(CN2CCN(c3ccc(C(=O)NS(=O)(=O)c4ccc(NCC5CCOCC5)c([N+](=O)[O-])c4)c(Oc4cnc5[nH]ccc5c4)c3)CC2)=C(c2ccc(Cl)cc2)C1 + COc1c(OCCCN2CCOCC2)ccc2c3n(c(=NC(=O)c4cnc(N)nc4)nc12)CCN3
Completion: 66.7

Prompt: Please list viability, T/C recorded for the molecule C#Cc1c(F)ccc2cc(O)cc(-c3ncc4c(N5CC6CCC(C5)N6)nc(OCC56CCCN5CC(F)C6)nc4c3F)c12 (configuration not stated) + Cc1nc(NC(=O)N2CCCC2C(N)=O)sc1-c1ccnc(C(C)(C)C(F)(F)F)c1
Completion: 59

Prompt: Supply measured viability, T/C of CC(C)NCC(C(=O)N1CCN(c2ncnc3c2C(C)CC3O)CC1)c1ccc(Cl)cc1 (configuration not stated) + Cc1nc(NC(=O)N2CCCC2C(N)=O)sc1-c1ccnc(C(C)(C)C(F)(F)F)c1 in your reply.
Completion: 58.2

Prompt: Specify viability, T/C for CC1(C)CCC(Nc2ncc(C(F)(F)F)c(-c3c[nH]c4c(P(C)(C)=O)c(C#N)ccc34)n2)CN1 (configuration not stated) + CC(Nc1ncnc2nc[nH]c12)c1cc2cccc(Cl)c2c(=O)n1-c1ccccc1 and stop.
Completion: 52.2

Prompt: Please look at this molecule and report its viability, T/C: CC(Cn1ccc(-c2ccc(C#N)c(Cl)c2)n1)NC(=O)c1cc(C(C)O)[nH]n1 (configuration not stated) + COc1c(OCCCN2CCOCC2)ccc2c3n(c(=NC(=O)c4cnc(N)nc4)nc12)CCN3
Completion: 83
